# TARGET OR SYSTEM: T1, GABARAPL1 (human, UniProt Q9H0R8 1-117)
# T1 construct: GABARAPL1, human, full-length (unprocessed) version; source: E. coli BL21(DE3), pGEX-4-T2, purified (Glutathione Sepharose 4B, thrombin cleavage, SEC)
# METHOD SUMMARY: BLI; Octet Red 96; N-terminally biotinylated peptides immobilised on High Precision Streptavidin (SAX) biosensors; purified hATG8 proteins as analyte in increasing concentrations; steady-state evaluation, one-site binding model; individual measurements unless stated otherwise
# MEASUREMENT SETUP: both partners purified
pKd: −log10 of the molar value. Where no end group is shown, it is not given here. The star is where a group is joined. Biotin = O=C1N[C@H]2[C@H](CS[C@H]2CCCCC(=O)*)N1
PROPERTY LABEL: pKd

- BINDER: "Biotin-ALTEDSIDDTFLPVPEYINQSVPK (Epidermal growth factor receptor (EGFR), residues 1076-1099 of the regulatory C-terminal domain, core LIR FLPV at 1086-1089; also called EGFR LIR1_(1076–1099); source: synthetic peptide, bought: CASLO (≥95% purity)) [EGFR LIR1 peptide (EGFR residues 1076–1099), N-terminally biotinylated]"
  RESULT NUMBER: 4.53
